- Test system: Staphylococcus hominis
- test name: Antimicrobial activity against methicillin-resistant coagulase-negative Staphylococcus hominis after 24 hrs by broth microdilution method
- Assay type: functional
Assign MIC50 to each entry below.

Could I get MIC50 for every one of these entries?
1. CN[C@H](CC(C)C)C(=O)N[C@H]1C(=O)N[C@@H](CC(N)=O)C(=O)N[C@H]2C(=O)N[C@H]3C(=O)N[C@H](C(=O)N[C@H](C(=O)O)c4cc(O)cc(O)c4-c4cc3ccc4O)[C@H](O)c3ccc(c(Cl)c3)Oc3cc2cc(c3O[C@@H]2O[C@H](CO)[C@@H](O)[C@H](O)[C@H]2O[C@H]2C[C@](C)(N)[C@H](O)[C@H](C)O2)Oc2ccc(cc2Cl)[C@H]1O
2. CC1(C)S[C@@H]2[C@H](NC(=O)[C@H](N)c3ccccc3)C(=O)N2[C@H]1C(=O)O
3. CN(C)[C@@H]1C(O)=C(C(N)=O)C(=O)[C@@]2(O)C(O)=C3C(=O)c4c(O)cccc4[C@@](C)(O)[C@H]3C[C@@H]12

*A*
1. 0.125 µg/mL
2. 16 µg/mL
3. 1 µg/mL

###

- System: Staphylococcus aureus
- test name: Bactericidal activity against methicillin-susceptible Staphylococcus aureus after 24 hrs by plate counting method
- Type: functional
- assay context: Staphylococcus aureus, 24 h
Assign MBC to each entry below.
One number for each entry, in µg/mL.

Recorded results for 4 molecules are shown here.
molecule: CN[C@H](CC(C)C)C(=O)N[C@H]1C(=O)N[C@@H](CC(N)=O)C(=O)N[C@H]2C(=O)N[C@H]3C(=O)N[C@H](C(=O)N[C@H](C(=O)O)c4cc(O)cc(O)c4-c4cc3ccc4O)[C@H](O)c3ccc(c(Cl)c3)Oc3cc2cc(c3O[C@@H]2O[C@H](CO)[C@@H](O)[C@H](O)[C@H]2O[C@H]2C[C@](C)(N)[C@H](O)[C@H](C)O2)Oc2ccc(cc2Cl)[C@H]1O [VANCOMYCIN]
unit annotation: µg/mL
value: 0.25
//
molecule: CC[C@H]1OC(=O)[C@H](C)[C@@H](O[C@H]2C[C@@](C)(OC)[C@@H](O)[C@H](C)O2)[C@H](C)[C@@H](O[C@@H]2O[C@H](C)C[C@H](N(C)C)[C@H]2O)[C@](C)(O)C[C@@H](C)C(=O)[C@H](C)[C@@H](O)[C@]1(C)O [ERYTHROMYCIN]
unit annotation: µg/mL
value: 1
//
molecule: COc1cc(O)c(C(=O)[C@@H]2[C@H](CC=C(C)C)C(C)=CC[C@H]2c2ccccc2)c(O)c1 [PANDURATIN A]
unit annotation: µg/mL
value: 1
//
molecule: CC(=O)NC[C@H]1CN(c2ccc(N3CCOCC3)c(F)c2)C(=O)O1 [LINEZOLID]
unit annotation: µg/mL
value: 2

*Q* Entry Cc1onc(-c2ccccc2)c1C(=O)N[C@@H]1C(=O)N2[C@@H]1SC(C)(C)[C@@H]2C(=O)O [OXACILLIN] has what MBC?
*A* 1

###

- System: Staphylococcus haemolyticus
- test name: Bactericidal activity against methicillin-resistant coagulase-negative Staphylococcus haemolyticus after 24 hrs by plate counting method
- Format: functional
Assign MBC90 to each entry below.

Recorded results for 3 compounds are shown here.
compound: C[C@H]1COc2c(N3CCN(C)CC3)c(F)cc3c(=O)c(C(=O)O)cn1c23.C[C@H]1COc2c(N3CCN(C)CC3)c(F)cc3c(=O)c(C(=O)O)cn1c23.O [LEVOFLOXACIN]
MBC90: 16 µg/mL
--
compound: CC1(C)S[C@@H]2[C@H](NC(=O)[C@H](N)c3ccccc3)C(=O)N2[C@H]1C(=O)O [AMPICILLIN]
MBC90: 256 µg/mL
--
compound: CN[C@H](CC(C)C)C(=O)N[C@H]1C(=O)N[C@@H](CC(N)=O)C(=O)N[C@H]2C(=O)N[C@H]3C(=O)N[C@H](C(=O)N[C@H](C(=O)O)c4cc(O)cc(O)c4-c4cc3ccc4O)[C@H](O)c3ccc(c(Cl)c3)Oc3cc2cc(c3O[C@@H]2O[C@H](CO)[C@@H](O)[C@H](O)[C@H]2O[C@H]2C[C@](C)(N)[C@H](O)[C@H](C)O2)Oc2ccc(cc2Cl)[C@H]1O [VANCOMYCIN]
MBC90: 4 µg/mL

API: the following record is the query input.
*Q* Entry Cc1onc(-c2ccccc2)c1C(=O)N[C@@H]1C(=O)N2[C@@H]1SC(C)(C)[C@@H]2C(=O)O [OXACILLIN] has what MBC90?
*A* 256 µg/mL

###

- Tested on: Staphylococcus simulans
- test name: Antimicrobial activity against methicillin-susceptible coagulase-negative Staphylococcus simulans after 24 hrs by broth microdilution method
- Assay type: functional
measurement name: MIC50 (µg/mL)
Give bare numbers, in µg/mL.

Recorded results for 4 compounds are shown here.
compound: C[C@H]1COc2c(N3CCN(C)CC3)c(F)cc3c(=O)c(C(=O)O)cn1c23.C[C@H]1COc2c(N3CCN(C)CC3)c(F)cc3c(=O)c(C(=O)O)cn1c23.O [LEVOFLOXACIN]
unit annotation: µg/mL
MIC50: 0.25

compound: CN[C@H](CC(C)C)C(=O)N[C@H]1C(=O)N[C@@H](CC(N)=O)C(=O)N[C@H]2C(=O)N[C@H]3C(=O)N[C@H](C(=O)N[C@H](C(=O)O)c4cc(O)cc(O)c4-c4cc3ccc4O)[C@H](O)c3ccc(c(Cl)c3)Oc3cc2cc(c3O[C@@H]2O[C@H](CO)[C@@H](O)[C@H](O)[C@H]2O[C@H]2C[C@](C)(N)[C@H](O)[C@H](C)O2)Oc2ccc(cc2Cl)[C@H]1O [VANCOMYCIN]
unit annotation: µg/mL
MIC50: 0.25

compound: CN(C)[C@@H]1C(O)=C(C(N)=O)C(=O)[C@@]2(O)C(O)=C3C(=O)c4c(O)cccc4[C@@](C)(O)[C@H]3C[C@@H]12 [TETRACYCLINE]
unit annotation: µg/mL
MIC50: 0.5

compound: CC1(C)S[C@@H]2[C@H](NC(=O)[C@H](N)c3ccccc3)C(=O)N2[C@H]1C(=O)O [AMPICILLIN]
unit annotation: µg/mL
MIC50: 2

API: the following record is the query input.
*Q* Entry Cc1onc(-c2ccccc2)c1C(=O)N[C@@H]1C(=O)N2[C@@H]1SC(C)(C)[C@@H]2C(=O)O [OXACILLIN] has what MIC50?
*A* 0.125

###

Assign Activity to each entry below.
- Tested on: Staphylococcus hominis
- test name: Antimicrobial activity against methicillin-resistant coagulase-negative Staphylococcus hominis assessed as susceptible isolates after 24 hrs by broth microdilution method
- Type: functional
The answer consists of two parts: a number and, after it, its unit.

Recorded results for 5 compounds are shown here.
compound string: CN(C)[C@@H]1C(O)=C(C(N)=O)C(=O)[C@@]2(O)C(O)=C3C(=O)c4c(O)cccc4[C@@](C)(O)[C@H]3C[C@@H]12
Activity: 18%
--
compound string: Cc1onc(-c2ccccc2)c1C(=O)N[C@@H]1C(=O)N2[C@@H]1SC(C)(C)[C@@H]2C(=O)O
Activity: 26%
--
compound string: CC(=O)NC[C@H]1CN(c2ccc(N3CCOCC3)c(F)c2)C(=O)O1
Activity: 100%
--
compound string: CN[C@H](CC(C)C)C(=O)N[C@H]1C(=O)N[C@@H](CC(N)=O)C(=O)N[C@H]2C(=O)N[C@H]3C(=O)N[C@H](C(=O)N[C@H](C(=O)O)c4cc(O)cc(O)c4-c4cc3ccc4O)[C@H](O)c3ccc(c(Cl)c3)Oc3cc2cc(c3O[C@@H]2O[C@H](CO)[C@@H](O)[C@H](O)[C@H]2O[C@H]2C[C@](C)(N)[C@H](O)[C@H](C)O2)Oc2ccc(cc2Cl)[C@H]1O
Activity: 100%
--
compound string: CC[C@H]1OC(=O)[C@H](C)[C@@H](O[C@H]2C[C@@](C)(OC)[C@@H](O)[C@H](C)O2)[C@H](C)[C@@H](O[C@@H]2O[C@H](C)C[C@H](N(C)C)[C@H]2O)[C@](C)(O)C[C@@H](C)C(=O)[C@H](C)[C@@H](O)[C@]1(C)O
Activity: 11%

*Q* Entry C[C@H]1COc2c(N3CCN(C)CC3)c(F)cc3c(=O)c(C(=O)O)cn1c23.C[C@H]1COc2c(N3CCN(C)CC3)c(F)cc3c(=O)c(C(=O)O)cn1c23.O has what Activity?
*A* 26%

###

Assign MIC50 to each entry below.
- Tested on: Staphylococcus epidermidis
- test name: Antimicrobial activity against methicillin-susceptible coagulase-negative Staphylococcus epidermidis after 24 hrs by broth microdilution method
- Format: functional

compound string: CC(=O)NC[C@H]1CN(c2ccc(N3CCOCC3)c(F)c2)C(=O)O1
value: 0.25 µg/mL
//
compound string: Cc1onc(-c2ccccc2)c1C(=O)N[C@@H]1C(=O)N2[C@@H]1SC(C)(C)[C@@H]2C(=O)O
value: 0.125 µg/mL
//
compound string: CN[C@H](CC(C)C)C(=O)N[C@H]1C(=O)N[C@@H](CC(N)=O)C(=O)N[C@H]2C(=O)N[C@H]3C(=O)N[C@H](C(=O)N[C@H](C(=O)O)c4cc(O)cc(O)c4-c4cc3ccc4O)[C@H](O)c3ccc(c(Cl)c3)Oc3cc2cc(c3O[C@@H]2O[C@H](CO)[C@@H](O)[C@H](O)[C@H]2O[C@H]2C[C@](C)(N)[C@H](O)[C@H](C)O2)Oc2ccc(cc2Cl)[C@H]1O
value: 0.25 µg/mL
//
compound string: CN(C)[C@@H]1C(O)=C(C(N)=O)C(=O)[C@@]2(O)C(O)=C3C(=O)c4c(O)cccc4[C@@](C)(O)[C@H]3C[C@@H]12
value: 0.5 µg/mL

API: the following record is the query input.
*Q* Entry CC1(C)S[C@@H]2[C@H](NC(=O)[C@H](N)c3ccccc3)C(=O)N2[C@H]1C(=O)O has what MIC50?
*A* 2 µg/mL
